- setup-conditions: 293.15 K; 101.33 kPa; Liquid; Optical interferometry
Below: a set of entries, each annotated with reported thermal diffusivity.

| compound | thermal diffusivity (m2/s) |
| --- | --- |
| CCCCCC[n+]1ccn(C)c1.O=S(=O)([N-]S(=O)(=O)C(F)(F)F)C(F)(F)F | 6.06e-08 |
| CCn1cc[n+](C)c1.O=S(=O)([N-]S(=O)(=O)C(F)(F)F)C(F)(F)F | 6.01e-08 |
| CCCC[n+]1ccn(C)c1.O=S(=O)([N-]S(=O)(=O)C(F)(F)F)C(F)(F)F | 6e-08 |
| CCCCn1cc[n+](C)c1.F[B-](F)(F)F [1-butyl-3-methylimidazolium tetrafluoroborate] | 8.6e-08 |
| CCCCCCCCn1cc[n+](C)c1.O=S(=O)([N-]S(=O)(=O)C(F)(F)F)C(F)(F)F | 6.1e-08 |
| CCCCn1cc[n+](C)c1.F[P-](F)(F)(F)(F)F [1-butyl-3-methylimidazolium hexafluorophosphate] | 7.5e-08 |
